The measured values listed here are drawn from patent US8614201B2.

molecular target: Human TRPA1 (Homo sapiens); assay: Assay 1: In vitro cellular testing of TRPA1 modulation (CHO-TREx, Fluo-3 calcium fluorescence, AITC agonist); type: cell-based; set-up: expressed in transfected cells; host or cells: CHO-TREx cells (Invitrogen), vector pcDNA4/TO; conditions: CHO-TREx cells expressing human TRPA1; Fluo-3 fluorescence (FLIPR/Tetra); agonist 15 μM allyl isothiocyanate (AITC); 30 minute antagonist incubation
parameterMeasured: IC50 (nM)

Below, 2 compounds whose answers are already recorded.
Lookup: Which IC50 is reported for this compound? CN(C)c1nc(CNC(=O)[C@@H]2CC(F)(F)CN2S(=O)(=O)c2ccc(Cl)s2)cc(-c2ccc(C(F)(F)F)cc2)n1
Found: 81

Lookup: Can you look up the measured IC50 of CN(C(=O)OC(C)(C)C)C1CCN(c2nc(CNC(=O)[C@@H]3CCCN3S(=O)(=O)c3ccc(Cl)s3)cc(-c3ccc(C(F)(F)F)cc3)n2)C1 (stereo partly shown) for me?
Found: 6

I. CN(C)c1cc(CNC(=O)[C@@H]2CC(F)(F)CN2S(=O)(=O)c2ccc(Cl)s2)cc(-c2ccc(C(F)(F)F)cc2)n1
II. O=C(NCc1cc(-c2ccc(C(F)(F)F)cc2)nc(N2CCN(Cc3ccccc3)CC2)c1)[C@@H]1C=CCN1S(=O)(=O)c1ccc(F)cc1
III. O=C(NCc1cc(-c2ccc(C(F)(F)F)cc2)nc(N2CCN(Cc3ccccn3)CC2)n1)[C@@H]1CCCN1S(=O)(=O)c1ccc(F)cc1
IV. O=C(NCc1cccc(-c2ccc(CN3CCOCC3)cc2)c1)[C@@H]1CCCN1S(=O)(=O)c1ccc(F)cc1
V. O=C(NCc1cc(-c2ccc(C(F)(F)F)cc2)nc(N2CCN(Cc3ccccc3)CC2)c1)[C@@H]1CCCN1S(=O)(=O)c1ccc(F)cc1
Lookup: List from greatest to least IC50. The reply should contain the labels ordered as requested.
Found: IV, II, I, III, V
(IV: 1700 nM, II: 452 nM, I: 241 nM, III: 130 nM, V: 43 nM)

###

Biological target: Human TRPA1 (Homo sapiens, UniProt O75762)
Sequence (O75762 whole entry): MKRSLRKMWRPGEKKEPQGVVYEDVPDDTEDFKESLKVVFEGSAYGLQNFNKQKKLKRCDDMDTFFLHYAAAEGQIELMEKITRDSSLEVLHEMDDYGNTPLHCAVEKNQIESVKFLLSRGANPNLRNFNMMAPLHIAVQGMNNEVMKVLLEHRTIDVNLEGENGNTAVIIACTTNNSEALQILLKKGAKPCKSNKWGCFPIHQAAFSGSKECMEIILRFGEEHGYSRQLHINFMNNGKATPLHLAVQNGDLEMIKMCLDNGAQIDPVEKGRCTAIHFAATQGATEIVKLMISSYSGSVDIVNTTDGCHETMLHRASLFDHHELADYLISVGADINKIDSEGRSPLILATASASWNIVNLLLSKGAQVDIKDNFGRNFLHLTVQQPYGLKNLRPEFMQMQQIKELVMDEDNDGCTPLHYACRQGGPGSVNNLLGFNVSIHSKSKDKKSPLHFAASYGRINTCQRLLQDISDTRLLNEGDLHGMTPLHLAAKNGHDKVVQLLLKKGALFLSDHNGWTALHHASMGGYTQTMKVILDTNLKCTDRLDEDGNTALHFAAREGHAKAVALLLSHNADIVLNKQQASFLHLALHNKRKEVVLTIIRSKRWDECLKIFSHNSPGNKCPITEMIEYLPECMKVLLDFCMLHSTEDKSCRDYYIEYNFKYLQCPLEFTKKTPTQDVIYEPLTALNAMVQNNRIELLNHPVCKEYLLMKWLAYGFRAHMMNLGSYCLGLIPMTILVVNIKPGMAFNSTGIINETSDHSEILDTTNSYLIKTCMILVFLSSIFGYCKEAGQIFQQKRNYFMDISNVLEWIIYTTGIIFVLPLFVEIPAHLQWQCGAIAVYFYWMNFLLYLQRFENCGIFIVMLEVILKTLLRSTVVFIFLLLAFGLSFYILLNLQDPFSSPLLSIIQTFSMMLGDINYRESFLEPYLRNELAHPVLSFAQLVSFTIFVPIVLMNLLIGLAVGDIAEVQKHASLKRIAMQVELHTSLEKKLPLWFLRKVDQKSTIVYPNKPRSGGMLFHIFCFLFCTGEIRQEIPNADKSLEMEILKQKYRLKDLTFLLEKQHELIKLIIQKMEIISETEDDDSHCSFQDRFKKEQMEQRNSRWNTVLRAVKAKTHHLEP
Assay: Assay 1: In vitro cellular testing of TRPA1 modulation (CHO-TREx, Fluo-3 calcium fluorescence, AITC agonist)
Assay type: cell-based
Set-up: expressed in transfected cells; host or cells: CHO-TREx cells (Invitrogen), vector pcDNA4/TO
Conditions: CHO-TREx cells expressing human TRPA1; Fluo-3 fluorescence (FLIPR/Tetra); agonist 15 μM allyl isothiocyanate (AITC); 30 minute antagonist incubation
Method: Assay 1: In Vitro Cellular Testing of TRPA1 Modulation Human TRPA1 (NCBI accession number NM_007332.1) was cloned into pcDNA4/TO. […] Following a further 30 minute incubation, cells were assayed using a Fluorometric Imaging Plate Reader (FLIPR™) or a Tetra (both manufactured by Molecular Devices, CA) to simultaneously monitor Fluo-3 fluorescence in all wells (λexcitation=488 nm, λemission=540 nm). […]
pIC50: −log10 of the molar value.
parameterMeasured: pIC50

Lookup: What value of measured pIC50 is listed for O=C(NCc1cccc(-c2ccc3ccccc3n2)c1)[C@@H]1CCCN1S(=O)(=O)c1ccc(F)cc1 ?
Found: 6.29

P. CN(C)CCN1CCN(c2nc(CNC(=O)[C@@H]3CCCN3S(=O)(=O)c3ccc(F)cc3)cc(-c3ccc(C(F)(F)F)cc3)n2)CC1
Q. O=C(NCc1cc(-c2ccc(C(F)(F)F)cc2)nc(N2CCCC2)c1)[C@@H]1CCCN1S(=O)(=O)c1ccc(F)cc1
R. Cc1cccc(S(=O)(=O)N2CCC[C@H]2C(=O)NCc2cc(-c3ccc(C(F)(F)F)cc3)ncn2)c1
S. O=C(NCc1cc(-c2ccc(C(F)(F)F)cc2)ncn1)[C@@H]1CCCN1S(=O)(=O)c1ccc(Br)cc1
T. O=C(NCc1cc(-c2ccc(C(F)(F)F)cc2)nc(N2CCN(c3ccccc3F)CC2)c1)[C@@H]1C=CCN1S(=O)(=O)c1ccc(F)cc1
Lookup: Form: Sort by [pIC50] Order [ ascending ] List the labels according to the requested ordering.
Found: T, P, R, S, Q
(T: 5.22, P: 5.68, R: 6.41, S: 7.04, Q: 7.80)

A. O=C(NCc1cccc(-c2ccc(Br)cc2)c1)[C@@H]1CCCN1S(=O)(=O)c1ccc(F)cc1
B. O=C(NCc1cccc(-c2ccccc2)c1)[C@@H]1CCCN1S(=O)(=O)c1ccc(F)cc1
C. O=C(NCc1cc(-c2ccc(C(F)(F)F)cc2)nc(N2CCN(Cc3cccnc3)CC2)n1)[C@@H]1CCCN1S(=O)(=O)c1ccc(F)cc1
Lookup: Let's sort these by pIC50, smallest first. Go ahead? Output spec: labels arranged per the requested ranking.
Found: B, A, C

1. O=C(NCc1cc(-c2ccc(C(F)(F)F)cc2)nc(-c2cccnc2)n1)[C@@H]1CCCN1S(=O)(=O)c1ccc(F)cc1
2. O=C(NCc1cccc(-c2ccc(C(F)(F)F)cc2)c1)[C@@H]1C=CCN1S(=O)(=O)c1ccc(Cl)s1
3. CC(=O)c1ccc(-c2cccc(CNC(=O)[C@@H]3CCCN3S(=O)(=O)c3ccc(F)cc3)c2)cc1
Lookup: Give the ascending ranking of the items by reported pIC50. # the answer lists labels in the order requested
Found: 3, 1, 2
(3: 6.07, 1: 6.97, 2: 7.96)
